Tested on: RAW-Dual (murine macrophage reporter line)
Assay: IRF reporter (Lucia luciferase) activity fold change vs agonist alone; higher = enhanced IRF activity
Conditions: modulator concentration 10 µM; agonist: LPS 0.1 ug/mL
measured_quantity: IRF reporter
Field format: numeric only.

Lookup: Which measured IRF reporter belongs to "CCN(CC)CCNc1ccc(CO)c2sc3ccccc3c(=O)c12" , tested on RAW-Dual (murine macrophage reporter line)?
Found: 0.964

Lookup: Follow-up item: "COc1ccc(-c2cc(=O)c3c(O)cc(O)cc3o2)cc1O"
Found: 0.426

Lookup: Follow-up item: "CCSc1nc(-c2cccs2)cc(C(F)(F)F)c1C#N"
Found: 1.18

Lookup: Follow-up item: O=C1CN(CCC2=CCCCC2)C2CS(=O)(=O)CC2N1c1ccc(Cl)cc1 (stereo unspecified)
Found: 0.892

Lookup: Follow-up item: "CCCC(=O)Nc1ncnc2c1ncn2[C@@H]1O[C@@H]2OP(=O)([O-])OC[C@H]2[C@H]1OC(=O)CCC"
Found: 1.41

Lookup: Follow-up item: "O=C(CC1(Cc2ccc(I)cc2)C(=O)c2ccccc2C1=O)c1ccccc1"
Found: 1.42

Lookup: Follow-up item: COc1cccc(S(=O)(=O)N2CCCC(c3nnc(C(F)(F)F)o3)C2)c1 (stereo unspecified)
Found: 1.11

Lookup: Follow-up item: "CC(C)N1CCN(c2ccc(OC[C@H]3CO[C@](Cn4cncn4)(c4ccc(Cl)cc4Cl)O3)cc2)CC1"
Found: 1.05

Lookup: Follow-up item: C#CCCCCCCCCCCCC(=O)CC(O)COC(C)=O (stereo unspecified)
Found: 0.878

Lookup: Follow-up item: "CN(CC(=O)O)c1nc2ccc(OC(F)(F)F)cc2s1"
Found: 0.941

Lookup: Follow-up item: "CCCc1nc(C(C)(C)O)c(C(=O)OCc2oc(=O)oc2C)n1Cc1ccc(-c2ccccc2-c2nnn[nH]2)cc1"
Found: 0.987

Lookup: Follow-up item: "COC(=O)c1ccc(-n2nnnc2SCC(=O)Nc2ccc(C)c(C)c2)cc1"
Found: 1.14

Lookup: Follow-up item: Cc1cn(C2C=CC(CO)O2)c(=O)[nH]c1=O (stereo unspecified)
Found: 1.04

Lookup: Follow-up item: "O=C(NCc1cccc(Cl)c1)c1cnc2n(c1=O)CCS2"
Found: 1.04

Lookup: Follow-up item: "CCc1ccccc1N(CC(=O)Nc1ccc(Cl)cc1C)S(C)(=O)=O"
Found: 1.08

Lookup: Follow-up item: "CC/C(=C(\c1ccccc1)c1ccc(OCCN(C)C)cc1)c1ccccc1.O=C(O)CC(O)(CC(=O)O)C(=O)O"
Found: 1.32

Lookup: Follow-up item: OCCOCCN1CCN(C(c2ccccc2)c2ccc(Cl)cc2)CC1 (stereo unspecified)
Found: 1

Lookup: Follow-up item: "CC1(C)CC(=O)c2sc(NC(=O)c3ccccc3)nc2C1"
Found: 1

Lookup: Follow-up item: "CCOc1ccc2nc(SC(c3ccccc3)c3ccccc3)sc2c1"
Found: 1.2

Lookup: Follow-up item: "Cc1cc2ncn(CC3CCN(C(=O)COc4ccc(F)cc4)CC3)c2cc1C.O=C(O)C(=O)O"
Found: 0.916

Lookup: Follow-up item: "Cl.O=C1NCC2(CCN(CCc3ccccc3)CC2)O1"
Found: 1.54

----------
System: RAW-Dual (murine macrophage reporter line)
Experiment: NF-kB reporter (SEAP) activity fold change vs agonist alone; higher = enhanced NF-kB activity
Settings: modulator concentration 10 µM; agonist: CpG ODN 1826 0.5 ug/mL
measured_quantity: NF-kB reporter
Field format: numeric only.

Lookup: Which measured NF-kB reporter belongs to "C[C@H]1O[C@H]1P(=O)(O)O.NC(CO)(CO)CO" , tested on RAW-Dual (murine macrophage reporter line)?
Found: 0.922

Lookup: Follow-up item: "O=c1c(-n2ccnn2)c[nH]n1-c1cc(N2CCOCC2)ncn1"
Found: 0.74

Lookup: Follow-up item: "COc1ccc(-c2ccc(OCCNC(=O)Cc3ccc(Br)cc3)nn2)cc1"
Found: 0.959

Lookup: Follow-up item: CN1CCN(C(CNC(=O)c2ccccc2Br)c2ccc(F)cc2)CC1 (stereo unspecified)
Found: 0.878

Lookup: Follow-up item: "CCC(=O)c1c(O)cc(O)cc1O"
Found: 1.03

Lookup: Follow-up item: "CCN(CC)CCOC(=O)c1ccc(N)cc1.Cl"
Found: 1.29
